B1: VH:VL chains; a variant is named by its letters at X, in order (parent)
chain 1: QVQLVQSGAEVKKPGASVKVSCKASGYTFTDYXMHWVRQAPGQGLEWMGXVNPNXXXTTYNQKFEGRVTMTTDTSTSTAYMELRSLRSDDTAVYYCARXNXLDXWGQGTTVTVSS
chain 2: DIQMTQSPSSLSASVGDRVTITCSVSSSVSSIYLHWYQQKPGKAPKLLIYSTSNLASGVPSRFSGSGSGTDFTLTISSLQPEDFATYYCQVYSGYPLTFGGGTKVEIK

Variants of: B1
ASSAY NAME: yeast display scFab, FACS + sequencing
VALUE TYPE: non-specific binding call

1. VRATGSVY : binds
2. VGGGADVA : no binding
3. FRKRSFSS : binds
4. VTGEDSLA : no binding
5. DAKENDVF : no binding
6. VTTRAAVS : no binding
7. YRAGTAAA : binds
8. YKAGGSGV : binds
9. VRAGGSAD : binds
10. VAGGDDAV : no binding
11. SKRRGSLS : binds
